# measured-target: Dual specificity protein kinase CLK2 (Homo sapiens);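 further: reported values are mean percent inhibition of CLK2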
# measurement-conditions: at 1 µM
Record form. Attribute: inhibition. Fill in for each entry.
# number only, unit % dropped from output

Noted for CCS(=O)(=O)c1ccc(OC)c(Nc2ncc(-c3ccccc3Cl)o2)c1 : its inhibition reads 34.1

Noted for O=C(Nc1n[nH]c2nc(-c3ccc(O)cc3)c(Br)cc12)C1CC1 : its inhibition reads 5.65

Noted for C/C(Nc1ccc(S(N)(=O)=O)cc1)=C1/C(=O)Nc2ccccc21 : its inhibition reads 2.45

Noted for COc1ccc2ncn(-c3cc(O[C@H](C)c4ccccc4Cl)c(C(N)=O)s3)c2c1 : its inhibition reads 0.2

Noted for Fc1ccc(-c2ncn(C3CCNCC3)c2-c2ccnc(Oc3ccc(Oc4ccccc4)cc3)n2)cc1 : its inhibition reads 4.62

Noted for FC(F)(F)c1cccc(Nc2nccc(-c3cnn4nc(-c5ccccc5)ccc34)n2)c1 : its inhibition reads 92.1

Noted for CCS(=O)(=O)c1ccc(OC)c(Nc2ncc(-c3cccc(-c4ccccc4F)c3)o2)c1 : its inhibition reads 36.9

Noted for CCc1nccc2c1nc(-c1nonc1N)n2CC : its inhibition reads 2.67

Noted for Clc1ccc(CNc2nccc(-c3cnn4ncccc34)n2)cc1 : its inhibition reads 43.6

Noted for COc1cc2ncn(-c3cc(OCc4ccccc4C(F)(F)F)c(C(C)=O)s3)c2cc1OC : its inhibition reads -0.63
